Test system: HS 578T breast
PROCEDURE SUMMARY: NCI tumour cell line growth inhibition, 48 h; in the data active means GI50 below about 0.43 µM; inactive means the rest
Thanks in advance; please answer with one of these: YES = active, NO = inactive

# fetch the recorded call for C=C1CC[C@@H]2[C@](C)(COC(C)=O)[C@H](OC(C)=O)CC[C@@]2(C)[C@@H]1CC(Nc1ccc(S(=O)(=O)Nc2nccs2)cc1)C1=CCOC1=O (some centres not stated) here
NO

# fetch the recorded call for CN(c1ccc(C#N)c(Cl)c1)C1CCC(NC(=O)c2ccc(N3CCN(C4CN(c5ccc6c(c5)C(=O)N(C5CCC(=O)NC5=O)C6=O)C4)CC3)cc2)CC1 (configuration not stated) here
NO

# fetch the recorded call for C=C1C(=O)O[C@H]2[C@H]1CC/C(CNC(=O)/C=C/c1ccccc1)=C\CC[C@@]1(C)O[C@@H]21 here
NO

# fetch the recorded call for CCOC(=O)C1=C(C)N2C(=NC3=C(CCC/C3=C\c3ccc(Cl)cc3)C2c2ccc(Cl)cc2)S1 (configuration not stated) here
NO

# fetch the recorded call for CC/C=C\C/C=C/C=C1/C(=O)C=C[C@@H]1C/C=C\CCCC(=O)OC here
NO

# fetch the recorded call for Cc1ccc(Sc2oc(-c3ccc(C)cc3)nc2[P+](c2ccccc2)(c2ccccc2)c2ccccc2)cc1 here
YES

# fetch the recorded call for COc1cc(C2CC(=O)Nc3c2cc(Br)c2ccccc32)cc(Br)c1OC (configuration not stated) here
NO

# fetch the recorded call for CC(=O)OC(C)C(OC(C)=O)C(OC(C)=O)C(/C=C/C1CC=CC(=O)O1)OC(C)=O (configuration not stated) here
NO

# fetch the recorded call for O=C1CSC(c2ccccc2O)N1c1nnc(Cn2ccnc2)o1 (configuration not stated) here
NO

# fetch the recorded call for O=C(Nc1cnc(C(F)(F)F)cn1)c1cc(Cl)ccc1O here
YES

# fetch the recorded call for Nc1n[nH]c2ccc([C@@H]3Nc4cc5[nH]ncc5cc4[C@H]4C5CCC(C5)[C@@H]34)cc12 (some centres not stated) here
YES

# fetch the recorded call for C[C@H]1c2ccccc2CN1CCCOc1cc2c(cc1OCC1CC1)C1(CCCC1)C(N)=N2 here
NO

# fetch the recorded call for CCOC1OC(=O)[C@H]2[C@@H]1[C@@H]1CC[C@H]2O1 (some centres not stated) here
NO

# fetch the recorded call for Brc1cccc(-c2cc(-c3ccc4nccnc4c3)[nH]n2)c1 here
NO

# fetch the recorded call for O=S(=O)(NC1=NCCN1C(=S)SN1CCn2c1nsc2=S)c1cccc(OC(F)(F)F)c1 here
NO

# fetch the recorded call for NS(=O)(=O)c1cccc(-c2ccc3c(NC(=O)C4CC4)n[nH]c3c2)c1 here
NO

# fetch the recorded call for CCN(CC)CCC(CNc1c(C)cnc2cc(Cl)ccc12)c1ccc(Cl)cc1 (configuration not stated) here
NO

* * *

Test system: UACC-62 melanoma
PROCEDURE SUMMARY: NCI tumour cell line growth inhibition, 48 h
Decision: TGI compared against 20 µM; not below it gives TRUE, below it gives FALSE.

Would you say CN(C)Cc1cc(C(=O)/C=C/c2cccc(Cl)c2)cc(CN(C)C)c1O shows TGI at minimum 20 µM?
TRUE

Would you say Oc1nc(N/N=C/c2ccccc2)[nH]c1/C=C1\C=Nc2ccccc21 shows TGI at minimum 20 µM?
TRUE

Would you say COC/N=C(/N)NC#N shows TGI at minimum 20 µM?
TRUE

Would you say O=c1cccc(C#CC#CCCCO)o1 shows TGI at minimum 20 µM?
FALSE

Would you say COC1=CC(=O)c2c(O)c3c(c(O)c2C1=O)C[C@](C)(O)C[C@@H]3O shows TGI at minimum 20 µM?
FALSE

Would you say O/N=C1\CCc2nonc2\C1=N/Nc1ccccc1 shows TGI at minimum 20 µM?
TRUE

Would you say CC1=C(C(=O)Nc2ccc(F)c(Cl)c2)C(c2ccccc2O)NC(=O)N1 (stereo not drawn) shows TGI at minimum 20 µM?
TRUE

Would you say Nc1ncccc1-c1nc2ccc(-c3ccccc3)nc2n1-c1ccc(C2(N)CCC2)cc1 shows TGI at minimum 20 µM?
FALSE

Would you say Oc1c(Cl)cc(Cl)c2cccnc12 shows TGI at minimum 20 µM?
FALSE

Would you say N#CC12C(=O)N3C(=NC(c4ccccc4)NC3c3ccccc3)C1(C#N)C(c1ccccc1)NC1=C2CCCC1 (stereo not drawn) shows TGI at minimum 20 µM?
TRUE

Would you say COP(=O)(OC)C(NC=O)P(=O)(OC)OC shows TGI at minimum 20 µM?
TRUE

Would you say c1csc(-c2csc(-c3ccsc3)c2)c1 shows TGI at minimum 20 µM?
TRUE

Would you say CCOC(=O)c1c(NCc2ccccc2)n(-c2ccccc2)c(=S)n(-c2ccccc2)c1=O shows TGI at minimum 20 µM?
TRUE

Would you say CC1=NN(C(=O)c2ccc(Cl)cc2)C(=O)/C1=C/c1ccc(Cl)cc1 shows TGI at minimum 20 µM?
TRUE

Would you say Nc1n[nH]c2ccc([C@@H]3Nc4cc5[nH]ncc5cc4[C@H]4C5CCC(C5)[C@@H]34)cc12 (stereo partly drawn) shows TGI at minimum 20 µM?
FALSE

Would you say NC(=O)c1cccc(-c2cc(C(N)=O)ccc2Cl)c1 shows TGI at minimum 20 µM?
TRUE

Would you say CC(=O)c1ccc(N2CCN(C3=CC(=O)c4c(O)ccc(O)c4C3=O)CC2)cc1 shows TGI at minimum 20 µM?
TRUE

Would you say C=CCC1(CC)C(=O)NC(=O)NC1=O shows TGI at minimum 20 µM?
TRUE

Would you say C[C@@H]1CC[C@@H](C)[C@](C)(CCc2ccoc2)C/C=C\C=C/1C(=O)O shows TGI at minimum 20 µM?
TRUE

Would you say N.N.N.N.N.O=S(=O)([O-])C(F)(F)F.O=S(=O)([O-])C(F)(F)F.[Os+8] shows TGI at minimum 20 µM?
TRUE

Would you say O=c1[nH]c2cc3cccnc3c(Cl)c2nc1CBr shows TGI at minimum 20 µM?
TRUE

Would you say CCOC(=O)c1c(N2CCOCC2)[nH]c(=O)c(C(c2cccs2)c2c(O)c(C(=O)OCC)c(N3CCOCC3)[nH]c2=O)c1O shows TGI at minimum 20 µM?
TRUE

Would you say CCCCCn1c(=O)c2c(=O)[nH][nH]c2c2ccccc21 shows TGI at minimum 20 µM?
TRUE

Would you say O=c1[nH]cnc2sc(=S)c3c(c12)CCC3 shows TGI at minimum 20 µM?
TRUE

Would you say Cc1c2ccncc2c(C)c2c1c1cc(CO)ccc1n2C shows TGI at minimum 20 µM?
FALSE

Would you say C[C@H]1c2ccccc2CN1CCCOc1cc2c(cc1OCC1CC1)C1(CCCC1)C(N)=N2 shows TGI at minimum 20 µM?
FALSE

Would you say Nc1n[nH]c(N)c1N=Nc1ccc(O)cc1 shows TGI at minimum 20 µM?
TRUE

Would you say CC/C=C\C/C=C/C=C1/C(=O)C=C[C@@H]1C/C=C\CCCC(=O)OC shows TGI at minimum 20 µM?
FALSE

Would you say COc1cccc(CC(C)=C(c2ccc(OCCCN(C)C)cc2)c2ccc(OCCCN(C)C)cc2)c1 shows TGI at minimum 20 µM?
FALSE

Would you say COc1cc(C2CC(=O)Nc3c2cc(Br)c2ccccc32)cc(Br)c1OC (stereo not drawn) shows TGI at minimum 20 µM?
TRUE

Would you say CCN(CC)CCC(CNc1c(C)cnc2cc(Cl)ccc12)c1ccc(Cl)cc1 (stereo not drawn) shows TGI at minimum 20 µM?
FALSE

Would you say COc1nc(OC)nc(-c2cccc(F)c2)n1 shows TGI at minimum 20 µM?
TRUE

Would you say CCOP(=O)(OCC)C1(O)CC(n2cc(C)c(=O)[nH]c2=O)OC1CO (stereo not drawn) shows TGI at minimum 20 µM?
TRUE

Would you say CCSc1nc(N)c(C#N)c(-c2ccco2)c1C#N shows TGI at minimum 20 µM?
TRUE

Would you say C=CCCCOC1[C@H](OCc2ccccc2)C(OCc2ccccc2)C(OC)O[C@@H]1CNC(=O)c1cccc(I)c1 (stereo partly drawn) shows TGI at minimum 20 µM?
TRUE

Would you say N#CC(C#N)=C(N)/C(C#N)=C/c1ccc2[nH]ccc2c1 shows TGI at minimum 20 µM?
TRUE

Would you say CCC1C(=O)OCc2c1cc1n(c2=O)C(CC)c2c-1nc1ccccc1c2Cl (stereo not drawn) shows TGI at minimum 20 µM?
TRUE

Would you say COc1cc(C(c2cccc3ccccc23)N2C(=O)CCC2C(=O)NCc2ccccc2)cc(OC)c1OC (stereo not drawn) shows TGI at minimum 20 µM?
TRUE

Would you say COc1ccc2c(-c3ccc(OCCN(C)C)cc3)c(Oc3ccc(Cl)cc3)c(=O)oc2c1 shows TGI at minimum 20 µM?
FALSE

Would you say Cc1cc(C)nc(NS(=O)(=O)c2ccc(NC(=O)c3cccn4c(=O)c5ccccc5nc34)cc2)n1 shows TGI at minimum 20 µM?
TRUE

Would you say Cc1nc2c(sc(=S)n2-c2ccccc2)c2nc3ccccc3n12 shows TGI at minimum 20 µM?
TRUE

Would you say COc1cc([C@H]2Oc3c(OC)cc(CCCO)cc3[C@@H]2CO)ccc1O shows TGI at minimum 20 µM?
TRUE

Would you say Nc1ccc(C(=O)NN2C(=O)C(Cl)C2c2cccc(O)c2)cc1 (stereo not drawn) shows TGI at minimum 20 µM?
TRUE
